# credit: ChEMBL document CHEMBL1148799

# Species: Rattus norvegicus
# Assay: Selectivity index, ratio of IC50 for rat brain mitochondria MAOA to IC50 for rat brain mitochondria MAOB
Measured Property: Selectivity index

Use these answered entries as a reference point.
> print(dat)
                            chemical.smiles  observed
1  C[C@@H](C(N)=O)N1CCc2cc(OCc3cccc(F)c3)ccc2C1       188
2     NC(=O)[C@H](CO)NCc1ccc(OCc2ccccc2)cc1       220
3         NC(=O)CNCc1ccc(OCc2cccc(Cl)c2)cc1       109
4      C[C@H](NCc1ccc(OCc2ccccc2)cc1)C(N)=O       388

[1] NC(=O)CNCc1ccc(OCc2ccc(Cl)cc2)cc1
[2] NC(=O)[C@H](CO)NCc1ccc(OCc2cccc(Cl)c2)cc1
[ask] // which entry has the larger Selectivity index value, 1 or 2 ? # answer = label of selected item
[reply] 2
